Values compiled from patent US20210032312A1.

Biological target: T1, human CD8 alpha (CD8A) on primary human CD8+ T cells (human, UniProt P01732 22-235)
T1 construct: whole, on cells; also called hCD8A
T1 sequence (P01732 22-235): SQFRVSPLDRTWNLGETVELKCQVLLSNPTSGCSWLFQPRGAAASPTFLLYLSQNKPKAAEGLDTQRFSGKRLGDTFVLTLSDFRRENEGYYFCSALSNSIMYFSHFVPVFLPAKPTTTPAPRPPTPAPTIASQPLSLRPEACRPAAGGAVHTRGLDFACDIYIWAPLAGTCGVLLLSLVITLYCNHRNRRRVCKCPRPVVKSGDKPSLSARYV
Experiment: flow cytometry, human CD8+ T cells, 0.2 uM FN3

binder	Human T-cell Binding 0.2 uM (MFI)
P282AR9P1356_H1 (designed binder, FN3 domain) LPAPKNLVVSRVTEDSARLSWIPNPSSFDSFLIQYQESEKVGEAIVLTVPGSERSYDLTGLKPGTEYTVSIYGVDVVFDPVGFPSHSNPLSAIFTT	3230
P282ER9P1360_F11 (designed binder, FN3 domain) LPAPKNLVVSRVTEDSARLSWIAPDAAFDSFSIAYVEAELVGEAIQLVVPGSERSYDLTGLKPGTEYWVVILGVKGGNPSNPLGASFTT	3860
